Assay: chemical genetic growth profiling, strain panel (AID 1159580);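 also: tested at 20 µM; growth read once vehicle control cultures reached saturation at 30 °C; 1 = growth at the plate median or of vehicle wells; lower values mean less growth of the strain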
Conditions: S. cerevisiae deletion strains, growth OD, locus YHR027C, strain rpn1
In all, about 5,500 compounds went through this assay and about 2,000 (36%) were called active. Not shown: some 18% with an inconclusive outcome. Rule as the data show it: active = normalized growth mostly below about 0.91 (no sharp cut-off); inconclusive = no clear call, values can overlap the other calls; inactive = mostly above about 0.92. The list shows a part of the results.
Pick one and only one: 1 (active), -1 (inactive)

[ask] For C=CC[C@@H]1/C=C(\C)C[C@H](C)C[C@H](OC)[C@H]2O[C@@](O)(C(=O)C(=O)N3CCCC[C@H]3C(=O)O[C@H](/C(C)=C/[C@@H]3CC[C@@H](O)[C@H](OC)C3)[C@H](C)[C@@H](O)CC1=O)[C@H](C)C[C@@H]2OC , which call appears in the assay record?
[reply] -1

[ask] For CC(=O)Oc1c(C)c(C)c2c(c1C)CCC(C)(CCCC(C)CCCC(C)CCCC(C)C)O2 (stereo not drawn) , which call appears in the assay record?
[reply] -1

[ask] For O=C1C=CC(=O)c2c(O)c(Cl)c(Cl)c(O)c21 , which call appears in the assay record?
[reply] 1

[ask] For COc1ccc(CC(=O)c2ccc(O)cc2O)cc1 , which call appears in the assay record?
[reply] -1

[ask] For CC1CC(OC(=O)c2ccccc2O)CC(C)(C)C1 (stereo not drawn) , which call appears in the assay record?
[reply] -1

[ask] For NS(=O)(=O)c1cc2c(cc1Cl)NCNS2(=O)=O , which call appears in the assay record?
[reply] -1

[ask] For COc1ccc([C@@H](C)C(=O)c2ccc(O)cc2O)cc1 , which call appears in the assay record?
[reply] -1

[ask] For CC12CCC(OC(=O)c3ccccc3)CC1CCc1ccccc12 (stereo not drawn) , which call appears in the assay record?
[reply] -1

[ask] For C/C(=C\CO)CC[C@H](C)CCC[C@H](C)CCCC(C)C , which call appears in the assay record?
[reply] 1

[ask] For CC(=O)O[C@@H]1C2CC[C@@H]3C1(C[C@@H](O)[C@@]1(O)[C@@H](C[C@H](O)C1(C)C)[C@]3(C)O)C[C@@]2(C)O (stereo partly drawn) , which call appears in the assay record?
[reply] -1

[ask] For CC(C)CCCC(C)N (stereo not drawn) , which call appears in the assay record?
[reply] -1

[ask] For CC1=C(C(=O)O)N2C(=O)[C@@H](NC(=O)[C@@H](N)c3ccc(O)cc3)[C@H]2SC1 , which call appears in the assay record?
[reply] -1

[ask] For O=C(O)C1=C(CSc2nnnn2CS(=O)(=O)O)CS[C@@H]2C(NC(=O)[C@H](O)c3ccccc3)C(=O)N12 (stereo partly drawn) , which call appears in the assay record?
[reply] -1

[ask] For CN1CCN(C2=Nc3cc(Cl)ccc3Nc3ccccc32)CC1 , which call appears in the assay record?
[reply] -1

[ask] For CC(=O)OC1CCC23CC1(C)CCC2C(C)(C)CC3OC(C)=O (stereo not drawn) , which call appears in the assay record?
[reply] -1

[ask] For NC(=NCCCCCCN=C(N)N=C(N)Nc1ccc(Cl)cc1)N=C(N)Nc1ccc(Cl)cc1 , which call appears in the assay record?
[reply] 1

[ask] For CC[C@H]1OC(=O)[C@H](C)[C@@H](O[C@H]2C[C@@](C)(OC)[C@@H](O)[C@H](C)O2)[C@H](C)[C@@H](O[C@@H]2O[C@H](C)C[C@H](N(C)C)[C@H]2O)[C@](C)(O)C[C@@H](C)/C(=N/OCOCCOC)[C@H](C)[C@@H](O)[C@]1(C)O , which call appears in the assay record?
[reply] -1

[ask] For COc1cc(Cc2cnc(N)nc2N)cc(OC)c1OC , which call appears in the assay record?
[reply] -1
